Data provenance: paper doi:10.1101/2024.08.19.608619

target: UniProt:P0DTD1; assay: biochemical; format: biochemical; details: SARS-CoV-2 nsp3 macrodomain TR-FRET single point, concentration 100.0 uM
Property Name: perc_inhibition_mean (%)
One number for each entry, in %.

compound="c1nc(NCc2cnc3sccn23)c2[nH]cnc2n1 [ASAP-0000252]" test_target=UniProt:P0DTD1 measurement=5.65
compound="Clc1cnc(N2CCN(c3ncnc4[nH]ccc34)CC2)c(Cl)c1 [ASAP-0000251]" test_target=UniProt:P0DTD1 measurement=-6.565
compound="Clc1cnc(OCCNc2ncnc3[nH]ccc23)c(Cl)c1 [ASAP-0000246]" test_target=UniProt:P0DTD1 measurement=-7.687

The reported value for OC[C@H](Cc1ccccc1)Nc1ncnc2[nH]ccc12 [ASAP-0000249] in terms of perc_inhibition_mean is 8.928
